Target: Cytochrome P450 1B1 (Homo sapiens)
Sequence (Q16678 whole entry): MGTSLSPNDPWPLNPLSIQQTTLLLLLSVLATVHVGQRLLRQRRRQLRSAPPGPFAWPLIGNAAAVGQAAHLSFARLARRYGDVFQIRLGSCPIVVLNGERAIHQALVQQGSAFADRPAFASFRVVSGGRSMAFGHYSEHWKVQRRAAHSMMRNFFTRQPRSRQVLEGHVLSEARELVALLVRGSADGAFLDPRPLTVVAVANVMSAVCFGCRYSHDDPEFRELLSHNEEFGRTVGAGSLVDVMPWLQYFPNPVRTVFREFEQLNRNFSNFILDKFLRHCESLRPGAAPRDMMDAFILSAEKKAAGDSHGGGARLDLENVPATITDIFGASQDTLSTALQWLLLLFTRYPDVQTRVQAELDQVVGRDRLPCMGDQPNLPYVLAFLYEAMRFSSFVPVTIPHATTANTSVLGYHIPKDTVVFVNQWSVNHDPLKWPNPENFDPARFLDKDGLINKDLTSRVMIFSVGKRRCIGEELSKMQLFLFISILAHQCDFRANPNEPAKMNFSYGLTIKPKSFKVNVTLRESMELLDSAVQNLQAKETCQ
pKd: −log10 of the molar value.
testReadout: pKd

- compound: "c1c[nH]cn1 [IMIDAZOLE]"
  testReadout: "pKd"
  reportedResult: 2.90

a = O=c1cc(C2=CCCCC2)oc2c1ccc1ccccc12
b = C=C=C[C@H]1CC[C@H](c2cc(=O)c3ccc4ccccc4c3o2)CC1
Ask | // returns a or b , whichever has the lower pKd Reply with the label of the item you choose.
Reply | b

###

target: Cytochrome P450 1B1 (Homo sapiens, UniProt Q16678); assay: Inhibition of human recombinant CYP1B1 using 7-ethoxyresorufin as substrate assessed as percent enzyme activity at 1 uM after 30 mins in presence of NADPH by EROD assay relative to control; parameters: scale not given: the % may be the effect or the level left; details: read-out: Activity
testReadout: activity at 0.5 h, 1 µM (%)

- compound: "C=C=C[C@H]1CC[C@@H](c2cc(=O)c3ccc4ccccc4c3o2)CC1"
  unitDescriptor: "%"
  reportedResult: 3.1
- compound: "[N-]=[N+]=N[C@H]1CC[C@@H](c2cc(=O)c3ccc4ccccc4c3o2)CC1"
  unitDescriptor: "%"
  reportedResult: -15.3

P = C#C[C@H]1CC[C@H](c2cc(=O)c3ccc4ccccc4c3o2)CC1
Q = O=c1cc(C2CCCCC2)oc2c1ccc1ccccc12
Ask | // returns P or Q , whichever has the lower activity at 0.5 h, 1 µM Reply with the label of the item you choose.
Reply | P
(P: 15%, Q: 25.4%)

a = O=c1cc([C@H]2CC[C@H](O)CC2)oc2c1ccc1ccccc12
b = Nc1ccc(-c2cc(=O)c3ccc4ccccc4c3o2)cc1
c = O=c1cc([C@H]2CC[C@H](S)CC2)oc2c1ccc1ccccc12
d = [N-]=[N+]=Nc1cccc(-c2cc(=O)c3ccc4ccccc4c3o2)c1
Ask | Write the entries in order, lowest recorded activity at 0.5 h, 1 µM first. The labels, placed in the requested order, form the answer.
Reply | b, d, c, a
(b: -1.2%, d: 0.7%, c: 1.8%, a: 51.3%)

P = O=c1cc([C@@H]2CCC[C@@H](O)C2)oc2c1ccc1ccccc12 (relative stereo)
Q = CS(=O)(=O)OCC1CCC(c2cc(=O)c3ccc4ccccc4c3o2)CC1 (racemic)
R = CC(=O)S[C@H]1CC[C@@H](c2cc(=O)c3ccc4ccccc4c3o2)CC1
S = CN(C)C(=O)Sc1ccc(-c2cc(=O)c3ccc4ccccc4c3o2)cc1
Ask | Write the entries in order, lowest recorded activity at 0.5 h, 1 µM first. The labels, placed in the requested order, form the answer.
Reply | R, S, Q, P
(R: -1.3%, S: 12.3%, Q: 50.1%, P: 72.9%)
